# Test system: cGAS activity in THP1 cells (IFNb as marker)
# experiment.notes: Cellular assay to measure cGAS activity (IFNb production in PMA-differentiated THP1 cells stimulated by RDG-Adenovirus-GFP)
# Assay type: cell-based, human
# setup.conditions: Homo sapiens, THP-1, THP1 cells, PMA differentiated, RDG-Adenovirus-GFP 1000 MOI, IFNb AlphaLISA, overnight incubation; read-out: IC50 (μM), Cellular assay for Compounds 95-348
experimental.readout: IC50 (µM)

Guide cases for IC50, answers given:
>  <compound>
Cc1nc(C(=O)N2CCn3c(c(-c4cn[nH]c4)c4c(OCC#N)cc(Cl)c(Cl)c43)C2)no1 [Example 282]

>  <experimental.readout>
IC50

>  <units>
µM

>  <observed>
2.99

$$$$
>  <compound>
NC1(C(=O)N2CCn3c(c(-c4cn[nH]c4)c4ccc(Cl)c(Cl)c43)C2)CCOCC1 [Example 147]

>  <experimental.readout>
IC50

>  <units>
µM

>  <observed>
4.63

$$$$
>  <compound>
CCC(=O)NCc1[nH]c2c(Cl)c(Cl)ccc2c1-c1cn[nH]c1 [Example 163]

>  <experimental.readout>
IC50

>  <units>
µM

>  <observed>
2.09

$$$$
>  <compound>
N#CCOc1cc(Cl)c(Cl)c2[nH]c(CO)c(-c3cn[nH]c3)c12 [Example 340]

>  <experimental.readout>
IC50

>  <units>
µM

>  <observed>
0.516

$$$$
>  <compound>
OCCc1cc(-n2cc(-c3cn[nH]c3)c3ccc(Cl)c(Cl)c32)on1 [Example 211]

>  <experimental.readout>
IC50

>  <units>
µM

>  <observed>
2.28

$$$$

P = CCN1CCn2c(c(-c3cn[nH]c3)c3c(NC(=O)C(F)F)cc(Cl)c(Cl)c32)C1=O [Example 251]
Q = O=S(=O)(CCn1cnnn1)NC1CCc2c(-c3cn[nH]c3)c3ccc(Cl)c(Cl)c3n2C1 (stereo not shown) [Example 120]
Short answer wanted: higher IC50, P or Q ? In your reply, give the label of the chosen option.
Q
(Q: 2.27 µM, P: 1.36 µM)

I = CN1CCOC[C@@H]1CC(=O)N1CCn2c(c(-c3cn[nH]c3)c3c(OCC#N)cc(Cl)c(Cl)c32)C1 [Example 114]
II = N#CCOc1cc(Cl)c(Cl)c2c1c(-c1cn[nH]c1)c1n2CCN(C(=O)c2nccnc2C(=O)N2CCOCC2)C1 [Example 296]
Short answer wanted: higher IC50, I or II ? In your reply, give the label of the chosen option.
II
(II: 4.78 µM, I: 1.53 µM)

a = NC(=O)Cn1cc(-n2cc(-c3cn[nH]c3)c3ccc(Cl)c(Cl)c32)nn1 [Example 213]
b = CC(=O)Nc1cc(Cl)c(Cl)c2[nH]c(CO)c(-c3cn[nH]c3)c12 [Example 130]
Short answer wanted: higher IC50, a or b ? In your reply, give the label of the chosen option.
a
(a: 4.1 µM, b: 0.815 µM)

----------
# experimental.target: recombinant human cGAS (Homo sapiens (Human), UniProt Q8N884)
# Sequence (Q8N884 whole entry): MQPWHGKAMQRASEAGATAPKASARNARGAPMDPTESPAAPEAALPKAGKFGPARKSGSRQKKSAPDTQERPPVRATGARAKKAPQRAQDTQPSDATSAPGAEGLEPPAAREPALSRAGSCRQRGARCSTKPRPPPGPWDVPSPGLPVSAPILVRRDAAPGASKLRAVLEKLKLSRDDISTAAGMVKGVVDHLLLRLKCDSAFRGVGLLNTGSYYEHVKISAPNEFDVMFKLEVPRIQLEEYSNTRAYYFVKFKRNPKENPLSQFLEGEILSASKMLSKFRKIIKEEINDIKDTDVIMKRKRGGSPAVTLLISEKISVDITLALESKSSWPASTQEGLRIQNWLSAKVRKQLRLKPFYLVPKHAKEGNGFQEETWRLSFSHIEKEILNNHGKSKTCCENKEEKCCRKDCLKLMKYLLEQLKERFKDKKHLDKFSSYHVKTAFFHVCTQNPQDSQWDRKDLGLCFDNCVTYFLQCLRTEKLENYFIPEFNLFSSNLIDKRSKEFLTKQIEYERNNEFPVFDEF
# experiment.notes: In vitro inhibition assay of cGAS activity (cGAMP production, RapidFire mass spectrometry)
# Type: biochemical
# setup.conditions: 10 nM recombinant human cGAS, 60 nM 75-bp dsDNA, ATP, GTP, room temperature 3 hours, read-out: IC50 (μM), In vitro inhibition assay for Compounds 95-348
Structures can show the parent of a compound that is named as a salt.
experimental.readout: IC50 (µM)

Guide cases for IC50, answers given:
>  <compound>
CC(=O)N1CCOC(CC(=O)N2CCn3c(c(-c4cn[nH]c4)c4ccc(Cl)c(Cl)c43)C2)C1 (single isomer, unassigned) [Example 265]

>  <experimental.target>
recombinant human cGAS (Homo sapiens (Human), UniProt Q8N884)

>  <IC50 / µM>
0.0511

$$$$
>  <compound>
CC(=O)NCCn1cc(-c2cn[nH]c2)c2c(NCCCO)cc(Cl)c(Cl)c21

>  <experimental.target>
recombinant human cGAS (Homo sapiens (Human), UniProt Q8N884)

>  <IC50 / µM>
0.0298

$$$$
>  <compound>
NCCn1cc(-n2cc(-c3cn[nH]c3)c3ccc(Cl)cc32)nn1 [Example 228, formic acid salt]

>  <experimental.target>
recombinant human cGAS (Homo sapiens (Human), UniProt Q8N884)

>  <IC50 / µM>
0.0493

$$$$
>  <compound>
O[C@@H]1CC[C@@H](Oc2cc(Cl)c(Cl)c3[nH]cc(-c4cn[nH]c4)c23)C1 (racemic)

>  <experimental.target>
recombinant human cGAS (Homo sapiens (Human), UniProt Q8N884)

>  <IC50 / µM>
0.0593

$$$$
>  <compound>
O=C(Nc1cc(Cl)c(F)c2c1c(-c1cn[nH]c1)cn2-c1cn(CCO)nn1)C(F)F

>  <experimental.target>
recombinant human cGAS (Homo sapiens (Human), UniProt Q8N884)

>  <IC50 / µM>
0.0341

$$$$
>  <compound>
CC(=O)NC1Cc2c(-c3cn[nH]c3)c3ccc(Cl)c(Cl)c3n2C1 (centres unmarked)

>  <experimental.target>
recombinant human cGAS (Homo sapiens (Human), UniProt Q8N884)

>  <IC50 / µM>
0.0273

$$$$

a = C[C@@H](O)C(=O)NCc1[nH]c2c(Cl)c(Cl)ccc2c1-c1cn[nH]c1
b = N#CCOc1cc(Cl)c(Cl)c2c1c(-c1cn[nH]c1)c1n2CCN(C(=O)c2cnccn2)C1
Short answer wanted: higher IC50, a or b ? In your reply, give the label of the chosen option.
a

----------
# experimental.target: recombinant human cGAS (Homo sapiens (Human))
# experiment.notes: In vitro inhibition assay of cGAS activity (cGAMP production, RapidFire mass spectrometry)
# Type: biochemical
# setup.conditions: 10 nM recombinant human cGAS, 60 nM 75-bp dsDNA, ATP, GTP, room temperature 3 hours, read-out: IC50 (μM), In vitro inhibition assay for Compounds 95-348
experimental.readout: IC50 (µM)

>  <compound>
CC(=O)Nc1cc(Cl)c(Cl)c2c1c(-c1cn[nH]c1)cn2-c1cn(CCO)nn1

>  <IC50, µM>
0.0519

$$$$
>  <compound>
O=C(CN1C(=O)CSC1=O)N1CCn2c(c(-c3cn[nH]c3)c3ccc(Cl)c(Cl)c32)C1

>  <IC50, µM>
0.0398

$$$$
>  <compound>
OC1Cc2c(-c3cn[nH]c3)c3ccc(Cl)c(Cl)c3n2C1 (centres unmarked)

>  <IC50, µM>
0.0391

$$$$
>  <compound>
O=C(Cc1ccn[nH]1)N1CCn2c(c(-c3cn[nH]c3)c3ccc(Cl)c(Cl)c32)C1

>  <IC50, µM>
0.0401

$$$$
>  <compound>
FC(F)CCNc1cc(Cl)c(Cl)c2[nH]cc(-c3cn[nH]c3)c12

>  <IC50, µM>
0.0541

$$$$

I = F[C@H]1C[C@@H](Nc2cc(Cl)c(Cl)c3[nH]cc(-c4cn[nH]c4)c23)C1
II = OC/C=C/CNc1cc(Cl)c(Cl)c2[nH]cc(-c3cn[nH]c3)c12
Short answer wanted: higher IC50, I or II ? In your reply, give the label of the chosen option.
II

----------
# Test system: cGAS activity in THP1 cells (IFNb as marker)
# experiment.notes: Cellular assay to measure cGAS activity (IFNb production in PMA-differentiated THP1 cells stimulated by RDG-Adenovirus-GFP)
# Type: cell-based, human
# setup.conditions: Homo sapiens, THP-1, THP1 cells, PMA differentiated, RDG-Adenovirus-GFP 1000 MOI, IFNb AlphaLISA, overnight incubation; read-out: IC50 (μM), Cellular assay for Compounds 95-348
Where a name gives a salt, the structure may show the parent alone.
experimental.readout: IC50 (µM)

Guide cases for IC50, answers given:
>  <compound>
COc1cc2c(-c3cn[nH]c3)cn(-c3ccc(CO)nn3)c2cc1Cl

>  <experimental.readout>
IC50

>  <observed>
0.964

$$$$
>  <compound>
OCCCn1cc(-n2cc(-c3cn[nH]c3)c3ccc(Cl)c(Cl)c32)nn1

>  <experimental.readout>
IC50

>  <observed>
5.13

$$$$
>  <compound>
Clc1cc(OC2COC2)c2c(-c3cn[nH]c3)c[nH]c2c1Cl

>  <experimental.readout>
IC50

>  <observed>
1.28

$$$$
>  <compound>
CC(CO)COc1cc(Cl)c(Cl)c2[nH]cc(-c3cn[nH]c3)c12 (stereo not drawn)

>  <experimental.readout>
IC50

>  <observed>
0.426

$$$$
>  <compound>
NCC(=O)NCc1[nH]c2c(Cl)c(Cl)ccc2c1-c1cn[nH]c1 [Example 216, formic acid salt]

>  <experimental.readout>
IC50

>  <observed>
4.17

$$$$
>  <compound>
CN1CCOC(C(=O)N2CCn3c(c(-c4cn[nH]c4)c4c(OCC#N)cc(Cl)c(Cl)c43)C2)C1 (stereo not drawn)

>  <experimental.readout>
IC50

>  <observed>
0.366

$$$$
>  <compound>
CC(=O)N1CCn2c(c(-c3cn[nH]c3)c3c(NC(=O)C(F)F)cc(Cl)c(Cl)c32)C1

>  <experimental.readout>
IC50

>  <observed>
0.509

$$$$
>  <compound>
OCCCNc1cc(Cl)c(Cl)c2c1c(-c1cn[nH]c1)cn2-c1cn(CCO)nn1

>  <experimental.readout>
IC50

>  <observed>
0.395

$$$$

P = CC(=O)Nc1cc(Cl)c(Cl)c2c1c(-c1cn[nH]c1)cn2-c1cn(CCO)nn1
Q = CC(CO)CNc1cc(Cl)c(Cl)c2[nH]cc(-c3cn[nH]c3)c12 (stereo not drawn)
Which of these two has the smaller recorded IC50: P or Q ? In your reply, give the label of the chosen option.
Q

A = OCC(F)CNc1cc(Cl)c(Cl)c2[nH]cc(-c3cn[nH]c3)c12 (stereo not drawn)
B = N#CCOc1cc(Cl)c(Cl)c2c1c(-c1cn[nH]c1)c1n2CCN(C(=O)CN2CCOCC2)C1
C = CC(=O)N1CCn2c(c(-c3cn[nH]c3)c3c(NCCCO)cc(Cl)c(Cl)c32)C1
Highest IC50 first, then in falling order down to the smallest. Returns: the labels listed in the requested order.
B, C, A
(B: 3.73 µM, C: 0.509 µM, A: 0.326 µM)
